System: Akt phosphorylation induced by IGF-1R
Experiment: Western blot analysis of Akt phosphorylation induced by IGF-1 in HT-29 cells
Format: cell-based, Human
Settings: 100 nM; Table B2 lower part
Protocol: Inhibition of Akt phosphorylation induced by IGF-1R was studied by western blot analysis. Human colon carcinoma HT-29 cells were seeded at a density of 8×10^4 cells/well in a 24-well plate and grown in DME/F12 media containing 10% FBS for 24 h. […] Lysed cells were centrifuged at 13,000 rpm for 15 min and the protein concentration soluble fraction (supernatant) of each sample was determined using a BCA protein assay (Pierce).
Reported p-AKT relative to levels with 0.1 nM compound values for the following molecules.
// return a plain number; no unit text

[[record]]
molecule = "O=C(Nc1ccc(F)nc1)C1CCCN1c1nc2c(c(Nc3cc(C4CC4)[nH]n3)n1)CCCC2 (single isomer, unassigned) [Compound 14a]"
measured_number = 0.5

[[record]]
molecule = "O=C(Nc1ccc(F)nc1)C1CCCN1c1nc2c(c(Nc3cc(C4CCCC4)[nH]n3)n1)CCC2 (racemic) [Compound 4]"
measured_number = 0.0

[[record]]
molecule = "O=C(Nc1ccc(F)nc1)C1CCCN1c1nc2c(c(Nc3cc(C4CCCC4)[nH]n3)n1)CCCC2 (single isomer, unassigned) [Compound 15a]"
measured_number = 0.8

[[record]]
molecule = "CC(C)c1cc(Nc2nc(N3CCCC3C(=O)Nc3ccc(F)nc3)nc3c2CCC3)on1 (racemic) [Compound 12b]"
measured_number = 0.6

[[record]]
molecule = "CC(C)c1cc(Nc2nc(N3CCCC3C(=O)Nc3ccc(F)nc3)nc3c2CCCC3)n[nH]1 (single isomer, unassigned) [Compound 13b]"
measured_number = 0.0


We next turn to a different molecule, shown below.
Task: What measured p-AKT relative to levels with 0.1 nM compound goes with CC(C)c1cc(Nc2nc(N3CCCCC3C(=O)Nc3ccc(F)nc3)nc3c2CCC3)n[nH]1 (single isomer, unassigned) [Compound 16b] ?
Result: 0.0

---

system: Akt phosphorylation induced by IGF-1R; test: Western blot analysis of Akt phosphorylation induced by IGF-1 in HT-29 cells; format: cell-based, Human; conditions: 0.1 nM compound, HT-29 cells, IGF-1
Please note: YES applies when Levels of phosphorylated AKT in treated cells (pAKT/actin) is 0.7 or greater, and NO applies otherwise.

Examples from the recorded data:
[[record]]
molecule = "O=C(Nc1ccc(F)nc1)[C@H]1[C@@H](O)CCN1c1nc2c(c(Nc3cc(C4CC4)[nH]n3)n1)CCC2 (single isomer, unassigned) [Compound 11a]"
group = "YES"

[[record]]
molecule = "CC(C)c1cc(Nc2nc(N3CCCCC3C(=O)Nc3ccc(F)nc3)nc3c2CCC3)n[nH]1 (single isomer, unassigned) [Compound 16b]"
group = "NO"

[[record]]
molecule = "O=C(Nc1ccc(F)nc1)C1CCCCN1c1nc2c(c(Nc3cc(C4CCCC4)[nH]n3)n1)CCC2 (single isomer, unassigned) [Compound 17a]"
group = "YES"

[[record]]
molecule = "O=C(Nc1ccc(F)nc1)C1CCCCN1c1nc2c(c(Nc3cc(C4CC4)[nH]n3)n1)CCC2 (single isomer, unassigned) [Compound 9a]"
group = "YES"

[[record]]
molecule = "O=C(Nc1ccc(F)nc1)C1CCCCN1c1nc2c(c(Nc3cc(C4CC4)[nH]n3)n1)CCC2 (racemic) [Compound 9]"
group = "NO"


Kindly consider the entry below.
Task: Tell me whether Levels of phosphorylated AKT in treated cells (pAKT/actin) is at least 0.7 here: O=C(Nc1cnccn1)C1CCCN1c1nc2c(c(Nc3cc(C4CC4)[nH]n3)n1)CCC2 (single isomer, unassigned) [Compound 6b]
Result: YES
